Kindly supply the reported EC50 (nM), TcdA neutralization, T84 cells values for the records listed here.
# TESTED_SYSTEM: full-length TcdA (TcdA1-2710) (Clostridioides difficile strain VPI10463, UniProt P16154 1-2710)
# Sequence (P16154 whole entry): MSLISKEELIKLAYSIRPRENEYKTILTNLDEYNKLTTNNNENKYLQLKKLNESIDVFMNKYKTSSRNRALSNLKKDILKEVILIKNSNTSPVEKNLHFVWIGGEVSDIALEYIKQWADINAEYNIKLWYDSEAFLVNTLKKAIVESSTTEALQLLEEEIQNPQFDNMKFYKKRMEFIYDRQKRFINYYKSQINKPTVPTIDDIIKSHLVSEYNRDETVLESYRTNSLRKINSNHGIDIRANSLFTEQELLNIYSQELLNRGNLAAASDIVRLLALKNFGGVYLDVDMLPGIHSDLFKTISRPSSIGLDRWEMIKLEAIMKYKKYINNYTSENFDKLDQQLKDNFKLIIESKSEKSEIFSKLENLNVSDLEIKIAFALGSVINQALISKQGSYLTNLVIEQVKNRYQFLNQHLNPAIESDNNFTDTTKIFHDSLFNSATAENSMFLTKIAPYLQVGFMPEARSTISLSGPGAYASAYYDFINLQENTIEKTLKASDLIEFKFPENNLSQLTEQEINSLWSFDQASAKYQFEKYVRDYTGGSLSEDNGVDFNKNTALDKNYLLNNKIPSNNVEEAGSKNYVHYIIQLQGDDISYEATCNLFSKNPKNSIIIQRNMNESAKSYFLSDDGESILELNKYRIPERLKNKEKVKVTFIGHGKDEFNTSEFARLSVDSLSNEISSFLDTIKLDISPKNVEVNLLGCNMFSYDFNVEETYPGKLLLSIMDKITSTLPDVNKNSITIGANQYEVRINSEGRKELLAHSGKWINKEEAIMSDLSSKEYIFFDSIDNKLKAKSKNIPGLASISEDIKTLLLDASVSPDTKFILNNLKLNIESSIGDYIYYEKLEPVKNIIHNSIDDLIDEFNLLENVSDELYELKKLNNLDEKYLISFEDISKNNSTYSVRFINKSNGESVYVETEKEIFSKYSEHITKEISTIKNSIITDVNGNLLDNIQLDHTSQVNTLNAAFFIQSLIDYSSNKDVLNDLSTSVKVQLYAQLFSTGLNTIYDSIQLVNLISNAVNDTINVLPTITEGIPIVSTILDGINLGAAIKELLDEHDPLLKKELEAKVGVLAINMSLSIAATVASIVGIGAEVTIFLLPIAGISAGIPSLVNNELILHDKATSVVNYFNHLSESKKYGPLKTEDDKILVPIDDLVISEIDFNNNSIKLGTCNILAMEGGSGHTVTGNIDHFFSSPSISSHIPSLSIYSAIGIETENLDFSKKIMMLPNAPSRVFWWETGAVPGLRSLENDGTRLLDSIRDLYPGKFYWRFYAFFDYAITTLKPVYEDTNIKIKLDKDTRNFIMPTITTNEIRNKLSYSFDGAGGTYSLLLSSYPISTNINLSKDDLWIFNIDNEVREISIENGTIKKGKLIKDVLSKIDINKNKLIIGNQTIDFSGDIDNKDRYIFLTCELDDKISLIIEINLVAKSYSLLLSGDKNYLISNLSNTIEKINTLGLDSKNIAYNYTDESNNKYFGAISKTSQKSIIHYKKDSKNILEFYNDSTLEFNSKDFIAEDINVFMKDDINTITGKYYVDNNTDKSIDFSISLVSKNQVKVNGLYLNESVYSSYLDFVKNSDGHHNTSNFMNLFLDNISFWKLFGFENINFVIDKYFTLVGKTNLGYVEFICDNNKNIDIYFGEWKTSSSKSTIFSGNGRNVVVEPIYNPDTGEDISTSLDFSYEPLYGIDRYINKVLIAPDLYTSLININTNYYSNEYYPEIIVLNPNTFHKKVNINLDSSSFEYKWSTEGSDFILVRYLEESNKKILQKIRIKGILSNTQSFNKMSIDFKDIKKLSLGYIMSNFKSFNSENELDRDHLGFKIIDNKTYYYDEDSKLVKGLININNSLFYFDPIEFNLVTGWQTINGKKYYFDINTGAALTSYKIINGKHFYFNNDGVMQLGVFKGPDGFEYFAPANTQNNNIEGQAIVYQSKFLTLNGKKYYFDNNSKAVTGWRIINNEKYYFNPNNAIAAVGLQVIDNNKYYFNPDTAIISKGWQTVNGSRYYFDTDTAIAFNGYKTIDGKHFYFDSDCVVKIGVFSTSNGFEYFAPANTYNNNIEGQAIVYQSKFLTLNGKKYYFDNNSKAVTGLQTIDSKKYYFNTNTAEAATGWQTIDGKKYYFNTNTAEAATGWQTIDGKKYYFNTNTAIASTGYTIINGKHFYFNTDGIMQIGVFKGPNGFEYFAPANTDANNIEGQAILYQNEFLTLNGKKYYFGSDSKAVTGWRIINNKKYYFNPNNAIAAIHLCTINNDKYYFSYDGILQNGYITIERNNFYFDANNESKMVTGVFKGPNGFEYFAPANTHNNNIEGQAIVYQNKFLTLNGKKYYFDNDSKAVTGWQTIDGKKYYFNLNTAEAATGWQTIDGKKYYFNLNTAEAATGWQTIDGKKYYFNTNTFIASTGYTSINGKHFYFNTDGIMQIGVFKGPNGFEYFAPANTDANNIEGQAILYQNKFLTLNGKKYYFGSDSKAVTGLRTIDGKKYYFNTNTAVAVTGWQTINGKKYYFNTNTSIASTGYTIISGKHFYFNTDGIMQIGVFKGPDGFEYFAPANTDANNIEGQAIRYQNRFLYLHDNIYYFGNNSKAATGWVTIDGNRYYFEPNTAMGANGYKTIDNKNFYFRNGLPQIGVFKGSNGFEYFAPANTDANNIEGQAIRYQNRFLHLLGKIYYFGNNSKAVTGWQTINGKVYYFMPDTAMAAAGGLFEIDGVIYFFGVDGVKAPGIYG
# METHOD_SUMMARY: cell-based or functional assay
One number for each entry, in nM.

BINDER: A1C11 (VHH) VHH: QVQLQESGGGLVQAGDSLRLSCAASGRTFSRYAMGWFRQAPGKEREFVAAISWSGGTTYYADSVKGRFTISRDNAKNTVYLQMNSLKPEDTAVYYCAAGLFRGDLTRFKLDEYDYRGQGTQVTVSS
ENDPOINT_UNIT: nM
EXPERIMENTAL_VALUE: 10.4
//
BINDER: A1D8 (VHH) VHH: QVQLQESGGGLVQAGGSLRLSCVASGGTFSRYALGWFRQAPGKEREFVAAISYSGATTYYADSVKGRFTISRDNAKNTVFLQMNSLKPEDTAVYYCAAGFFRGDLTKFKLDEYDYRGQGTQVTVSS
ENDPOINT_UNIT: nM
EXPERIMENTAL_VALUE: 2.1
//
BINDER: A2H4 (VHH) VHH: QVQLQESGGGLVQPGGSLRLSCAASGSIFSINAMGWYRQAPGKQRELVAKITSGGTTNYADSVKGRFTISRDGAKNTVYLQMNSLKPEDTAVYYCNLPWTSDLGWAVKDYWGQGTQVTVSS
ENDPOINT_UNIT: nM
EXPERIMENTAL_VALUE: 838

Below: the item to evaluate.
Input line: In one line, give reported EC50 (nM), TcdA neutralization, T84 cells of the entry A1C4 (VHH) VHH: QVQLQESGGGLVQPGGSLRLSCAASGRSFSINTMGWYRQAPGNKRDMVATITTGGNTNYADSVKGRFTISRDNAKNTVYLQMNSLKPEDTAVYYCRTVVVTPYPDEFEYDYWGQGTQVTVSS .
Output line: 60.3
